# measurementTarget: T1, human interleukin-1 receptor on cells (MRC-5 human embryonic lung fibroblasts; human blood cells) (human, UniProt P14778 18-569)
# T1 sequence (looked up): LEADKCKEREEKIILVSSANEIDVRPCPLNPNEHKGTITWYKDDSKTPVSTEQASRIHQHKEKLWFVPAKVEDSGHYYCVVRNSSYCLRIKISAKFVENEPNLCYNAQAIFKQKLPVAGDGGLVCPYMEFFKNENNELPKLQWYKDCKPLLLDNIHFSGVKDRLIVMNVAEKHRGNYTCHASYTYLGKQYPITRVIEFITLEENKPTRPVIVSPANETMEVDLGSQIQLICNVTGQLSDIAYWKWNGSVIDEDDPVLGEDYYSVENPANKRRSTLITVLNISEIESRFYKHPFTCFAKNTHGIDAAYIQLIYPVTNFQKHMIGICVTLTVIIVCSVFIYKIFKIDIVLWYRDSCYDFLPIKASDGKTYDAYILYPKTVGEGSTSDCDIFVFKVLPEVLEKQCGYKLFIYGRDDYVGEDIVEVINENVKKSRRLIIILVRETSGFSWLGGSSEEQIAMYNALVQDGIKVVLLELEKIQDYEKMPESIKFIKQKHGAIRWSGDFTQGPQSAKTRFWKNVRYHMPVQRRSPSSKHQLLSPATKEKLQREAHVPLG
# assayDetails: cell-based or functional assay
resultType: Bioassay (IC50 in relation to 2D8), Mean

binder DEI4/7 (antibody, V domains shown) VH: QLQLQESGPGLVKPSQTLSLTCTVSGLSLTSNSITWIRQPPGKGPEWMGMIWSNGDTDYNSAFTSRFTISRDNSKNTLYLQMNSLKTEDTAVYYCARYNYYFDYWGQGTLVTVSS VL: DIVLTQSPATLSLSPGERATLSCKASQNVDNRGVSYVHWYQQKPGQAPKLLIYKGSNLAFGVPARFSGSGSGTDFTLTISSLQPEDFATYFCQQSKGHPDTFGAGTKLELK , Bioassay (IC50 in relation to 2D8), Mean observed: 3.5 relative to 2D8

Origin of the recorded values: patent US20090191187A1
